pIC50 values for Tyrosine-protein kinase JAK1 (Homo sapiens, UniProt P23458), compiled from several publications.
pIC50: −log10 of the molar value.
MEASUREMENT KIND: pIC50

CC(C)(O)C(=O)N1CCN(c2ccc(C(F)(F)F)c(C3=C(c4c[nH]c5ccccc45)C(=O)NC3=O)c2)CC1 ... 5.99
CCN(c1ccc(O)cc1CNc1nc(-c2cc(F)c(O)cc2CC(F)(F)F)nc2[nH]nc(C(N)=O)c12)S(=O)(=O)c1ccccc1 ... 7.26
N#CCC(=O)N1CC2(CCC(c3cccc4nc(NC(=O)[C@H]5CC5(F)F)nn34)CC2)C1 ... 7.22
CCC1CN(C(=O)NCC(F)(F)F)CC1NCc1ccc(C)nc1-c1cnc2[nH]ccc2c1 (configuration not stated) ... 6.30
CN(c1cc(O)ccc1CNc1nc(-c2cc(F)c(O)cc2CC(F)(F)F)cc2[nH]nc(C(N)=O)c12)S(C)(=O)=O ... 8.17

[P] CN(C)CCNC(=O)N1CCc2[nH]c(-c3n[nH]c4nc(-c5cc(F)c(O)cc5CC(F)(F)F)nc(NCc5cc(O)ccc5N(C)S(C)(=O)=O)c34)nc2C1
[Q] CCC1CN(C(=O)NCC(F)(F)F)CC1N(C)c1ncnc2[nH]ccc12 (configuration not stated)
[R] CCC1CN(C(=O)NCC(F)(F)F)CC1c1nc(N)nc2[nH]ccc12 (configuration not stated)
[S] N#CCC(=O)N1CC2(CCC(c3cccc4nc(NC(=O)C5CC5(F)F)nn34)CC2)C1 (configuration not stated)
List from greatest to least pIC50. Hello, could you send the labels back in the order asked? Thank you.
P, S, Q, R
